Test system: HepG2
Assay: Cytotoxicity against human HepG2 cells after 72 hrs by MTT assay
Format: functional, cell-based
Conditions: HepG2, 72 h
Test Readout: IC50 (µM)
Give bare numbers, in µM.

CCCCCCCCCCCCOC1O[C@H](CO)[C@H](O)[C@H](O)[C@H]1O (mixture of isomers): 63.4

Please go through the list and note IC50 for each compound.
1. CCCCCCCCCCOC1O[C@H](CO)[C@H](O)[C@H](O)[C@H]1O (mixture of isomers)
2. CCCCCCCCCCCOC1O[C@H](CO)[C@H](O)[C@H](O)[C@H]1O (mixture of isomers)

Marked response:
192
68.2

###

Test system: HCT-116
Assay: Cytotoxicity against human HCT116 cells after 72 hrs by MTT assay
Format: functional, cell-based
Conditions: HCT-116, 72 h
Flag rule - IC50 less than 80 µM flags 1; the remaining entries get -1.

CCCCCCCCCCCCCO[C@H]1O[C@H](CO)[C@H](O)[C@H](O)[C@H]1O: 1

Exam item: Is the reported IC50 for CCCCCCCCCCCCOC1O[C@H](CO)[C@H](O)[C@H](O)[C@H]1O (mixture of isomers) strictly below 80 µM?
Marked response: 1

Exam item: Is the reported IC50 for CCCCCCCCCCO[C@@H]1O[C@H](CO)[C@H](O)[C@H](O)[C@H]1O strictly below 80 µM?
Marked response: -1

Exam item: Is the reported IC50 for CCCCCCCCCCCCCOC1O[C@H](CO)[C@H](O)[C@H](O)[C@H]1O (mixture of isomers) strictly below 80 µM?
Marked response: 1

Exam item: Is the reported IC50 for CCCCCCCCCCOC1O[C@H](CO)[C@H](O)[C@H](O)[C@H]1O (mixture of isomers) strictly below 80 µM?
Marked response: -1

Exam item: Is the reported IC50 for CCCCCCCCCCCOC1O[C@H](CO)[C@H](O)[C@H](O)[C@H]1O (mixture of isomers) strictly below 80 µM?
Marked response: 1

Exam item: Is the reported IC50 for CCCCCCCCCCCCCCCCO[C@H]1O[C@H](CO)[C@H](O)[C@H](O)[C@H]1O strictly below 80 µM?
Marked response: 1

Exam item: Is the reported IC50 for CCCCCCCCCCCCCO[C@@H]1O[C@H](CO)[C@H](O)[C@H](O)[C@H]1O strictly below 80 µM?
Marked response: -1

Exam item: Is the reported IC50 for CCCCCCCCCCCCCCCO[C@H]1O[C@H](CO)[C@H](O)[C@H](O)[C@H]1O strictly below 80 µM?
Marked response: 1

Exam item: Is the reported IC50 for CCCCCCCCCCCCO[C@@H]1O[C@H](CO)[C@H](O)[C@H](O)[C@H]1O strictly below 80 µM?
Marked response: -1

Exam item: Is the reported IC50 for CCCCCCCCCCCCCCCCO[C@@H]1O[C@H](CO)[C@H](O)[C@H](O)[C@H]1O strictly below 80 µM?
Marked response: -1

Exam item: Is the reported IC50 for CCCCCCCCCCCO[C@@H]1O[C@H](CO)[C@H](O)[C@H](O)[C@H]1O strictly below 80 µM?
Marked response: -1

###

System: HCT-116
Assay: Cytotoxicity against human HCT116 cells after 72 hrs by MTT assay
Assay type: functional, cell-based
Details: HCT-116, 72 h
Test Readout: IC50

CCCCCCCCCCCO[C@H]1O[C@H](CO)[C@H](O)[C@H](O)[C@H]1O: 152 µM
CCCCCCCCCCCCO[C@H]1O[C@H](CO)[C@H](O)[C@H](O)[C@H]1O: 88.8 µM
CCCCCCCCCCCCCCO[C@H]1O[C@H](CO)[C@H](O)[C@H](O)[C@H]1O: 72.8 µM
CCCCCCCCCCO[C@H]1O[C@H](CO)[C@H](O)[C@H](O)[C@H]1O: > 240 µM

The molecule identified as CCCCCCCCCCCCCCCCOC1O[C@H](CO)[C@H](O)[C@H](O)[C@H]1O (mixture of isomers) registered its IC50 at 32.2 µM
